# PROTOCOL_SUMMARY: A qHTS for Small Molecule Inhibitors of Shiga Toxin; also: 0% is about no effect
# CONDITION_CONTEXT: Vero cells, Shiga toxin protein synthesis inhibition reporter; at 38.7 µM, hits give high values
About 27,000 (9.3%) of roughly 290,000 compounds were called active. This is one part of a sample in which actives are shown more often than they occur.
ASSAY_ENDPOINT: inhibition (%)
Please reply with the bare figure in % and do not write the unit itself.

Field: example entries. Status: answers known.
| MOLECULE | ENDPOINT_UNIT | inhibition |
| --- | --- | --- |
| O=C(NNC(=S)Nc1ccc(F)cc1)[C@H]1C[C@@H]1c1ccccc1 | % | -8.83 |
| CC(=O)Nc1ccc(S(=O)(=O)N2CCC(C(=O)NC3CC3)CC2)cc1 | % | -3.15 |
| COc1cc2c(C(=O)O)c(C)n(C)c2c2ccccc12 | % | -4.47 |

For reference, reported inhibition for Cc1ccc(S(=O)(=O)N(Cc2cc3ccccc3[nH]c2=O)CC2CCCO2)cc1 (centres undefined) stands at -2.48

get_value(item= Cc1nnc2n1N=C(c1ccccc1)CS2 , readout=inhibition) returns -5.72

Sure, the documented inhibition for O=C(NCCCn1ccnc1)c1cc(Br)c(Br)s1 is -8.29

Value of measured inhibition for the entry O=C(c1ccc(F)cc1)N1CCCC(c2nc(-c3cccs3)no2)C1 (centres undefined) : 16.4

Looking up O=C(c1cccs1)N1CCCC(c2nc(-c3ccc(F)cc3)no2)C1 (centres undefined) , I found its inhibition recorded as 82.3

Value of inhibition reported for the molecule O=C(Cc1cccs1)N1CCCC(c2nc(-c3ccc(S(=O)(=O)N4CCCC4)cc3)no2)C1 (centres undefined) is -10.3

* * *

# PROTOCOL_SUMMARY: A qHTS for Small Molecule Inhibitors of Shiga Toxin; also: 0% is about no effect
# CONDITION_CONTEXT: Vero cells, Shiga toxin protein synthesis inhibition reporter; at 38.7 µM
The campaign covered roughly 290,000 compounds. About 27,000 (9.3%) were called active. Rule as the data show it: active = inhibition mostly above about 28% (no sharp cut-off); inactive = mostly below about 43%. Many of the other results were omitted from the sample, so actives are more common in it than they were.
I would appreciate it if you answered using one of these outcomes: t = active, f = inactive

| STRUCTURE | CATEGORY |
| --- | --- |
| Cc1ccc(OCC(=O)Nc2ccc(N3CCN(C(=O)c4ccco4)CC3)cc2)c(C)c1 | f |
| O=[N+]([O-])c1ccc2nc(-c3ccccn3)[nH]c2c1 | t |

Problem: Could you kindly confirm the outcome this assay logged for S=C(c1ccc(-c2ccccc2)o1)N1CCCCC1 ?
Solution: t

Problem: In this assay, the call recorded for Cc1cc(C)cc(NC(=O)CN2C(=O)c3ccccc3C2=O)c1 was what?
Solution: f

Problem: Fill in: this test's call for Cc1ccc(SCC(=O)NNC(=O)c2ccc(S(C)(=O)=O)cc2)cc1 is ___
Solution: f

* * *

# PROTOCOL_SUMMARY: A qHTS for Small Molecule Inhibitors of Shiga Toxin; also: 0% is about no effect
# CONDITION_CONTEXT: Vero cells, Shiga toxin protein synthesis inhibition reporter; at 38.7 µM, hits give high values
In all, about 290,000 compounds went through this assay and about 27,000 (9.3%) were called active. For the sample, actives were picked, then their nearest neighbours and some compounds at random. Where a SMILES comes first, the peptide text is derived from it. [ ]: non-standard residue; d: D form. The star is where a group is joined. PhAc = O=C(Cc1ccccc1)*
ASSAY_ENDPOINT: inhibition (%)
Numbers only here, please. The scale is %.

Use these answered entries as a reference point.
| COMPOUND | inhibition / % |
| --- | --- |
| O=C(NCCCn1ccnc1)c1ccccc1F | -3 |
| O=C(Nc1cccc([N+](=O)[O-])c1)Nc1ccc(Cl)cn1 | 0.898 |
| CN1CCN(c2ccccc2NC(=O)COc2ccc(C3CCCCC3)cc2)CC1 | 16.9 |
| COc1ccc2[nH]c(C(=O)N/N=C/c3cc(OC)c(OC)c(OC)c3)cc2c1 | 8.34 |
| Cc1cccc(C(=O)Nc2nnc(Cc3c[nH]c4ccccc34)s2)c1 | -6.89 |
| CC(C)C[C@@H](NC(=O)[C@H]1CCCN1C(=O)Cc1ccccc1)C(N)=O (PhAc-[dP]-[dL]-NH2) | 6.07 |

Per the record, Nc1nnc(SCn2nnc3ccccc3c2=O)s1 has inhibition of 46.5

For record O=C(Cc1ccc([N+](=O)[O-])cc1)Nc1ccc(C(=O)N2CCOCC2)cc1 the listed inhibition is 7.91

Sample Cc1cccc(N(C(=O)c2csnn2)C(C(=O)NCc2ccccc2)c2ccncc2)c1 (centres undefined) ; inhibition observed: -9.04

Quick note, inhibition for Cc1ccc(S(=O)(=O)N2CCC(Oc3ccc(-n4cnnn4)cc3)CC2)cc1 landed at 1.93

Value of measured inhibition for the entry CC(=O)Cc1nsc(NC(=O)c2ccc(COc3ccc(C)cc3)o2)n1 : -9.97

Measured inhibition of Cc1cccc(NC(=O)c2ccc(COc3ccccc3[N+](=O)[O-])o2)n1 : 32.9

Reported inhibition ( O=C(NC1CCCC1)C1CC(=O)N(c2ccc(F)cc2)C1 (centres undefined) ) = -11.9

Value of measured inhibition for the entry Cc1ccc(S(=O)(=O)N2CCC3(CC2)OCCO3)c(C)c1 : 19.9

* * *

# PROTOCOL_SUMMARY: A qHTS for Small Molecule Inhibitors of Shiga Toxin; also: 0% is about no effect
# CONDITION_CONTEXT: Vero cells, Shiga toxin protein synthesis inhibition reporter; at 38.7 µM, hits give high values
The campaign covered roughly 290,000 compounds. About 27,000 (9.3%) were called active. The sample holds actives, similar compounds and a random draw of the others, so the mix is not that of the screen.
ASSAY_ENDPOINT: inhibition (%)
Number in %, nothing else.

The examples below pair each entry with its known result.
| COMPOUND | ASSAY_ENDPOINT | VALUE |
| --- | --- | --- |
| O=C(Nc1ccc2c(c1)CCC2)c1cccc(S(=O)(=O)N2CCN(c3ccc(F)cc3)CC2)c1 | inhibition | 86.5 |
| COc1ccc([N+](=O)[O-])cc1N(CC(=O)Nc1ccccc1C(=O)N1CCOCC1)S(C)(=O)=O | inhibition | -1.77 |
| COc1ccccc1C1CCN(C(=S)Nc2ccc(Br)cc2)CC1 | inhibition | 47.5 |
| O=C(COc1ccccc1)Nc1ccc(C(=O)N2CCCC2)cc1 | inhibition | 9.15 |
| O=C(c1ccc(S(=O)(=O)c2ccccc2)cc1)N1CCCCCC1 | inhibition | 1.55 |

Entry COc1ccc(/C=C(/CC(=O)Nc2ccc(C)cc2)c2nc3ccccc3s2)cc1 — recorded inhibition = 19.4

# compound Cc1ccc(Cn2c(C)nc3c(c2=O)c2nc4ccccc4nc2n3Cc2ccco2)cc1 ; its inhibition = 12.7

Quick note, inhibition for C=CCOc1ccc(/C=C/C(=O)OCC(=O)NC2CCCCCC2)cc1 landed at 1.6

Value of inhibition reported for the compound Cc1ccc(S(=O)(=O)NCC2CCC(C(=O)N3CCOCC3)CC2)cc1 (centres undefined) is -3.33

Field inhibition (entry O=C(c1ccc(CSc2ccccc2)cc1)N1CCCCCC1 ) reads 17.6

The compound identified as O=C(Nc1ccccc1)c1cc2ccccc2[nH]1 registered its inhibition at 116

Measured inhibition, O=C(Cn1cc(C(=O)C2CC2)c2ccccc21)Nc1ccccc1Cl : -2.68

Given item CC(=O)Nc1ccc(Nc2ncnc3c2nnn3Cc2ccccc2Cl)cc1 , the value recorded as its inhibition is -4.64

// C/C(=N\NC(=O)c1cccc([N+](=O)[O-])c1)c1cccnc1 : inhibition value = 11.6

inhibition measured on Cc1cccnc1NC(=O)c1cccc(S(=O)(=O)N2CCN(c3ccc(F)cc3)CC2)c1 = -9.4

* * *

# PROTOCOL_SUMMARY: A qHTS for Small Molecule Inhibitors of Shiga Toxin; also: 0% is about no effect
# CONDITION_CONTEXT: Vero cells, Shiga toxin protein synthesis inhibition reporter; at 38.7 µM
The whole screen tested about 290,000 compounds, of which about 27,000 (9.3%) were called active. Cut-off read from the data, not from the text of the source: active = inhibition mostly above about 28% (no sharp cut-off); inactive = mostly below about 43%. Shown is part of a subset that was picked to be rich in actives.
Classes to choose from: active, inactive

| MOLECULE | CATEGORY |
| --- | --- |
| Cn1c(=O)c2c(nc(N3CCCCCC3)n2CC(=O)c2ccc(Br)cc2)n(C)c1=O | inactive |
| Cc1ccsc1C(=O)N[C@@H](C)c1nnc2ccccn12 | inactive |
| O=C(COc1ccc(S(=O)(=O)N2CCOCC2)cc1Cl)N1CCOCC1 | inactive |
| CCOC(=O)N1CCN(C(=O)CSc2ccc(Cl)cc2)CC1 | active |
| COc1ccccc1OCc1ccc(C(=O)NC(C)c2ccccc2)o1 (stereo not drawn) | inactive |

Problem: Name the outcome recorded for CCc1ccccc1N(CC(=O)NCC1CCCO1)C(=O)CCC(=O)Nc1nccs1 (stereo not drawn) in the assay.
Solution: inactive

Problem: For CCc1ccccc1S(=O)(=O)Cc1ccc(C(=O)NCCc2ccccc2)o1 , which call appears in the assay record?
Solution: inactive

Problem: How did this test come out for CCN1CCN(C(=O)CSc2ccc(C)cc2)CC1 ?
Solution: inactive
